Experiment: A: acetonitrile + 0.1% formic acid + 10 mM ammonium formate; B: 5% water + 95% acetonitrile + 0.1% formic acid + 10 mM ammonium formate; gradient (min/%B) 0/10 2/10 22/100 27/100 27.1/10
Details: stereoisomer not certain
endpoint: LC retention time (min)
Provide the reading as a plain figure in min.

>>> recorded_result("NCCCCC(=O)O [5-Aminovaleric acid]")
5.83
>>> recorded_result("C=C(OP(=O)(O)O)C(=O)O [Phospho(enol)pyruvic Acid]")
7.08
>>> recorded_result("O=C(O)CNC(=O)c1ccccc1O [2-Hydroxy Hippuric Acid]")
1.14
>>> recorded_result("Nc1ccc(S(=O)(=O)c2ccc(N)cc2)cc1 [4,4'-Diaminodiphenyl sulfone]")
0.441

The record that follows has no LC retention time shown yet.
Problem: Specify measured LC retention time for Cc1cc2nc3c(=O)[nH]c(=O)nc-3n(CC(O)C(O)C(O)COP(=O)(O)OP(=O)(O)OCC3OC(n4cnc5c(N)ncnc54)C(O)C3O)c2cc1C (stereo not given) [Flavin Adenine Dinucleotide] .
Result: 7.38

* * *

Readings of log10(LC retention time) for the listed molecules
Assay: A: acetonitrile + 0.1% formic acid + 10 mM ammonium formate; B: 5% water + 95% acetonitrile + 0.1% formic acid + 10 mM ammonium formate; gradient (min/%B) 0/10 2/10 22/100 27/100 27.1/10
Details: stereoisomer not certain
All values: base-10 log of LC retention time in min.

>>> recorded_result("Nc1ccn(C2OC(CO)C(O)C2O)c(=O)n1 (stereo not given) [Cytidine]")
0.67

Problem: Give the value of log10(LC retention time) reported for the following: CC(=O)CCC(=O)O [Levulinic acid]
Result: -0.38

Problem: Annotate the molecule NC(=O)c1ccccc1O [Salicylamide] with its measured log10(LC retention time).
Result: -0.35

Problem: State its log10(LC retention time) for this molecule: O=C(O)COCCN1CCN(C(c2ccccc2)c2ccc(Cl)cc2)CC1 (stereo not given) [Cetirizine]
Result: 0.12

Problem: Please indicate log10(LC retention time) recorded for O=C(O)CCCCCCCCCCCC(=O)O [1,11-Undecanedicarboxylic acid]
Result: -0.26

Problem: Give the measured log10(LC retention time) for O=C(O)c1ccncc1 [Isonicotinic acid]
Result: 0.48

Problem: Give log10(LC retention time) for NC(=O)NCCC[C@H](N)C(=O)O [L-Citrulline]
Result: 0.83

Problem: Note log10(LC retention time) for the molecule shown: Nc1nc2c(ncn2C2OC(COP(=O)(O)O)C(O)C2O)c(=O)[nH]1 (stereo not given) [Guanosine 5'-monophosphate]
Result: 0.87

* * *

Experiment: A: acetonitrile + 0.1% formic acid + 10 mM ammonium formate; B: 5% water + 95% acetonitrile + 0.1% formic acid + 10 mM ammonium formate; gradient (min/%B) 0/10 2/10 22/100 27/100 27.1/10
Details: stereoisomer not certain
Listing: LC retention time of selected compounds
Respond with the bare value in min.

Problem: Give the reported LC retention time for this compound. O=C(O)Cc1ccccc1Nc1c(Cl)cccc1Cl [Diclofenac acid]
Result: 0.456

Problem: Please list LC retention time recorded for the compound Nc1ccc(C(=O)O)c(O)c1 [4-Aminosalicylic Acid]
Result: 0.675

Problem: Note LC retention time for the compound shown: CC(=O)c1cnccn1 [2-Acetylpyrazine]
Result: 0.441

Problem: Report measured LC retention time; entry is NS(=O)(=O)c1cc(C(=O)O)c(NCc2ccco2)cc1Cl [Furosemide]
Result: 0.586

Problem: Dear colleague, please send me the reported LC retention time for c1coc(Cn2cccc2)c1 [1-Furfurylpyrrole] when you can.
Result: 0.425

Problem: Please list LC retention time recorded for the compound Nc1ncnc2c1ncn2C1OC(CO)C(O)C1O (stereo unspecified) [Adenosine]
Result: 2.08

Problem: In one line, give reported LC retention time of the entry Nc1nc2c(ncn2C2OC(CO)C(O)C2O)c(=O)[nH]1 (stereo unspecified) [Guanosine] .
Result: 4.96

Problem: Provide only the value of recorded LC retention time for O=c1ccn(C2CC(O)C(CO)O2)c(=O)[nH]1 (stereo unspecified) [2'-Deoxyuridine]
Result: 1.23

Problem: Identify measured LC retention time associated with O=c1cc(CO)occ1O [Kojic acid]
Result: 1.22

* * *

Experiment: A: acetonitrile + 0.1% formic acid + 10 mM ammonium formate; B: 5% water + 95% acetonitrile + 0.1% formic acid + 10 mM ammonium formate; gradient (min/%B) 0/10 2/10 22/100 27/100 27.1/10
Conditions: stereoisomer not certain
endpoint: LC retention time (min)
Numbers only; they are read as min.

>>> recorded_result("O=C(CCc1ccc(O)cc1)c1c(O)cc(O)cc1OC1OC(CO)C(O)C(O)C1O (centres undefined)")
1.25
>>> recorded_result("COc1ccc2nc(S(=O)Cc3ncc(C)c(OC)c3C)[nH]c2c1 (centres undefined)")
0.484

API: the following record is the query input.
Problem: Fill in reported LC retention time for this entry: C[S+](CC[C@H](N)C(=O)[O-])C[C@H]1O[C@@H](n2cnc3c(N)ncnc32)[C@H](O)[C@@H]1O (some centres undefined)
Result: 8.08

* * *

Test: A: acetonitrile + 0.1% formic acid + 10 mM ammonium formate; B: 5% water + 95% acetonitrile + 0.1% formic acid + 10 mM ammonium formate; gradient (min/%B) 0/10 2/10 22/100 27/100 27.1/10
Details: stereoisomer not certain
Each entry below carries its recorded LC retention time.
Units required after the number.

// solved cases for LC retention time follow
>>> recorded_result("C=C1CC23CCC4C(C)(C(=O)OC5OC(CO)C(O)C(O)C5O)CCCC4(C)C2CCC1(OC1OC(CO)C(O)C(O)C1OC1OC(CO)C(O)C(O)C1O)C3 (stereo not drawn) [Stevioside]")
"4.85 min"
>>> recorded_result("N[C@@H](Cc1c[nH]c2ccc(O)cc12)C(=O)O [L-5-Hydroxytryptophan]")
"5.36 min"
>>> recorded_result("NC(=O)C[C@H](N)C(=O)O [L-Asparagine]")
"6.65 min"
>>> recorded_result("N[C@@H](CSSC[C@H](N)C(=O)O)C(=O)O [L-Cystine]")
"8.16 min"
>>> recorded_result("OCCNCCO [Diethanolamine]")
"5.23 min"
>>> recorded_result("COc1ccc(CC(=O)O)cc1OC [3,4-Dimethoxyphenylacetic acid]")
"0.554 min"
>>> recorded_result("COC(=O)C1C2CC3c4[nH]c5cc(OC)ccc5c4CCN3CC2CC(OC(=O)c2cc(OC)c(OC)c(OC)c2)C1OC (stereo not drawn) [Reserpine]")
"0.769 min"

Problem: Quick one: give measured LC retention time for CCN1CCCC1CNC(=O)c1cc(S(N)(=O)=O)ccc1OC (racemic) [(+/-)-Sulpiride]
Result: 2.67 min

* * *

Test: A: acetonitrile + 0.1% formic acid + 10 mM ammonium formate; B: 5% water + 95% acetonitrile + 0.1% formic acid + 10 mM ammonium formate; gradient (min/%B) 0/10 2/10 22/100 27/100 27.1/10
Conditions: stereoisomer not certain
// f strictly below 0.9 min in LC retention time; t otherwise

>>> category_label("NC(=O)NC(NC(N)=O)C(=O)O")
"t"
>>> category_label("Cn1cnc2[nH]c(=O)[nH]c(=O)c21")
"t"
>>> category_label("CC(=O)N1CCC[C@H]1C(=O)O")
"t"
>>> category_label("Cc1ccc(C(C)C)cc2c(C)ccc1-2")
"f"
>>> category_label("CN=C(NC#N)NCCSCc1nc[nH]c1C")
"t"

Problem: Could you please find out whether `COc1cc(O)cc(OC)c1` has LC retention time that meets 0.9 min or exceeds it?
Result: f

Problem: Threshold query (LC retention time >= 0.9 min) on CC(=O)NC(Cc1c[nH]c2ccccc12)C(=O)O (racemic)
Result: t

Problem: Hi team, for `O=C(O)CCCCCCCC(=O)O` , is the recorded LC retention time at or above 0.9 min?
Result: f

Problem: Determine whether measured LC retention time meets or exceeds 0.9 min for `CN(C)CCCN1c2ccccc2CCc2ccc(Cl)cc21`
Result: t

* * *

Here, each record is paired with measured LC retention time data.
Assay: A: acetonitrile + 0.1% formic acid + 10 mM ammonium formate; B: 5% water + 95% acetonitrile + 0.1% formic acid + 10 mM ammonium formate; gradient (min/%B) 0/10 2/10 22/100 27/100 27.1/10
Settings: stereoisomer not certain
Give the value in min but do not write min after it.

>>> recorded_result("CC(C)(CO)C(O)C(=O)NCCC(=O)O (single isomer, unassigned; (+)) [(+)-Pantothenic acid]")
2.17
>>> recorded_result("Nc1ccn(C2CC(O)C(CO)O2)c(=O)n1 (stereo not given)")
3.51

Problem: Input O=C1CCNC(=O)N1 [Dihydrouracil] , output reported LC retention time.
Result: 0.746

Problem: # return recorded LC retention time for entry N[C@H]1C(O)O[C@H](COP(=O)(O)O)[C@@H](O)[C@@H]1O (stereo partly drawn) [D-Glucosamine 6-phosphate]
Result: 8.21

Problem: Provide one value: measured LC retention time of CCc1occc(=O)c1O [2-Ethyl-3-hydroxy-4H-pyran-4-one]
Result: 0.586

Problem: Please supply the value of reported LC retention time for the item COc1ccc(Cl)cc1C(=O)NCCc1ccc(S(=O)(=O)NC(=O)NC2CCCCC2)cc1 [Glibenclamide]
Result: 0.446

Problem: Dear colleague, please send me the reported LC retention time for `Nc1ccc(C(=O)O)cc1` when you can.
Result: 0.555

Problem: For the compound CCN(Cc1ccncc1)C(=O)C(CO)c1ccccc1 (stereo not given) [Tropicamide] , give its measured LC retention time value.
Result: 0.641

Problem: Specify LC retention time for CC(C)C(N)CC(=O)O (racemic) and stop.
Result: 5.29

Problem: Check the records and state LC retention time for CCC1C(=O)OCC1Cc1cncn1C (stereo not given)
Result: 1.22
